tested on: PD-L1 expression; assay: PD-L1 promoter-luciferase reporter assay in A549 pGL4.14-PD-L1 cell line; assay type: cell-based; settings: Homo sapiens, 1.0 μM, IFNγ (50 ng/ml) inducer, luminometer, read-out: PD-L1 expression inhibition rate in A549 (%)
Tag: 1.0 if measured inhibition at 1 µM is not below 80%, 0.0 if it is.

Q. Textbook exercise: given the entry CN1C(=O)N(c2cc(NC(=O)c3cccc(C(C)(C)C)c3)cnc2Cl)Cc2cnc(Nc3ccccc3)nc21 , state whether its inhibition at 1 µM is greater than or equal to 80%.
A. 1.0

Q. Textbook exercise: given the entry COc1ncc(NC(=O)c2cccc(C(F)(F)F)c2)cc1N1Cc2cnc(Nc3ccccc3)nc2N(C)C1=O , state whether its inhibition at 1 µM is greater than or equal to 80%.
A. 1.0

Q. Textbook exercise: given the entry c1cn2cc(-c3ccc4cn[nH]c4c3)nc(Nc3ccc(N4CCOCC4)cc3)c2n1 [GS9973(Entospletinib), Entospletinib, reference compound] , state whether its inhibition at 1 µM is greater than or equal to 80%.
A. 0.0

Q. Textbook exercise: given the entry CN1C(=O)N(c2cc(NC(=O)c3csc(C(C)(C)C)n3)cnc2Cl)Cc2cnc(Nc3ccccc3)nc21 , state whether its inhibition at 1 µM is greater than or equal to 80%.
A. 1.0

----------
test system: PD-L1 expression; test: PD-L1 promoter-luciferase reporter assay in A549 pGL4.14-PD-L1 cell line; format: cell-based; settings: Homo sapiens, 1.0 μM, IFNγ (50 ng/ml) inducer, luminometer, read-out: PD-L1 expression inhibition rate in A549 (%)
readout name: inhibition at 1 µM (%)
Enter your answer as a number in %; do not include the unit.

In plain terms, Cc1ncc(NC(=O)c2cccc(C(C)(C)C)c2)cc1N1Cc2cnc(Nc3ccccc3)nc2N(C)C1=O has a documented inhibition at 1 µM of 72.5

In plain terms, CN1C(=O)N(c2cc(NC(=O)c3cccc(C(F)(F)F)c3)cnc2Cl)Cc2cnc(Nc3ccc(O)cc3)nc21 has a documented inhibition at 1 µM of 98

In plain terms, CN1C(=O)N(c2cc(NC(=O)c3cccc(C(F)(F)F)c3)cnc2Cl)Cc2cnc(Nc3ccccc3)nc21 has a documented inhibition at 1 µM of 97.5

In plain terms, Cc1ncc(NC(=O)c2ccc(C3=NC(C)(C)CO3)cc2)cc1N1Cc2cnc(Nc3ccccc3)nc2N(C)C1=O has a documented inhibition at 1 µM of 82.5

In plain terms, COc1ncc(NC(=O)c2cccc(C3=NC(C)(C)CO3)c2)cc1N1Cc2cnc(Nc3ccccc3)nc2N(C)C1=O has a documented inhibition at 1 µM of 85.3

In plain terms, Cc1ncc(NC(=O)c2cccc(C(F)(F)F)c2)cc1N1Cc2cnc(Nc3ccccc3)nc2N(C)C1=O has a documented inhibition at 1 µM of 87.1

In plain terms, COc1ncc(NC(=O)c2cccc(C(C)(C)C)c2)cc1N1Cc2cnc(Nc3ccccc3)nc2N(C)C1=O has a documented inhibition at 1 µM of 94.1
